- Test system: HCC-366
- Test Protocol: relative viability (nuclei count vs DMSO), 5 days (fraction); higher = more cells survive
- Conditions: first compound 2.53 µM
Catalogue of relative viability readings, one per entry.
Measure: relative viability

- Molecule: "O=c1cc(-c2cccc3c2Sc2ccccc2S3)oc(N2CCOCC2)c1 + CS(=O)(=O)N1CCN(Cc2cc3nc(-c4cccc5[nH]ncc45)nc(N4CCOCC4)c3s2)CC1 [Pictilisib] (partner 1 µM)"
  Numeric Readout: 0.122
- Molecule: "COc1nc(C)cnc1NS(=O)(=O)c1cccnc1-c1ccc(-c2nnco2)cc1 [Zibotentan] + N=C(N)NC(=N)NCCc1ccccc1 [Phenformin] (partner 250 µM)"
  Numeric Readout: 0.603
- Molecule: "O=c1cc(-c2cccc3c2Sc2ccccc2S3)oc(N2CCOCC2)c1 + O=C(CCCCCCC(=O)Nc1ccccc1)NO [Vorinostat] (partner 1 µM)"
  Numeric Readout: 0.426

* * *

- Test system: NCI-H1395
- Test Protocol: relative viability (nuclei count vs DMSO), 5 days (fraction); higher = more cells survive
- Conditions: first compound 0.2 µM

- Compound: "COCC1(CO)C(=O)C2CCN1CC2 (stereo not given) [PRIMA-1MET] + CC(=O)Nc1cccc(-n2c(=O)n(C3CC3)c(=O)c3c(Nc4ccc(I)cc4F)n(C)c(=O)c(C)c32)c1 [Trametinib] (partner 0.02 µM)"
  relative viability: 1.14
- Compound: "COCC1(CO)C(=O)C2CCN1CC2 (stereo not given) [PRIMA-1MET] + CS(=O)(=O)CCNCc1ccc(-c2ccc3ncnc(Nc4ccc(OCc5cccc(F)c5)c(Cl)c4)c3c2)o1 [Lapatinib] (partner 2 µM)"
  relative viability: 0.922
- Compound: "COCC1(CO)C(=O)C2CCN1CC2 (stereo not given) [PRIMA-1MET] + COc1cc2c(Oc3ccc(NC(=O)C4(C(=O)Nc5ccc(F)cc5)CC4)cc3F)ccnc2cc1OCCCN1CCOCC1 [Foretinib] (partner 0.25 µM)"
  relative viability: 1.03
- Compound: "COCC1(CO)C(=O)C2CCN1CC2 (stereo not given) [PRIMA-1MET] + COc1cccc2cc(-c3nc([C@H]4CC[C@H](C(=O)O)CC4)n4ncnc(N)c34)[nH]c12 [OSI-027] (partner 0.5 µM)"
  relative viability: 0.605
- Compound: "COCC1(CO)C(=O)C2CCN1CC2 (stereo not given) [PRIMA-1MET] + Nc1ncn([C@H]2C[C@H](O)[C@@H](CO)O2)c(=O)n1 [Decitabine] (partner 2 µM)"
  relative viability: 0.712

* * *

- Test system: NCI-H650
- Test Protocol: relative viability (nuclei count vs DMSO), 5 days (fraction); higher = more cells survive
- Conditions: first compound 0.08 µM

- Molecule: "O=c1cc(-c2cccc3c2Sc2ccccc2S3)oc(N2CCOCC2)c1 + Nc1nc2[nH]cc(CCc3ccc(C(=O)N[C@@H](CCC(=O)O)C(=O)O)cc3)c2c(=O)[nH]1 [Pemetrexed] (partner 0.2 µM)"
  System Under Test: "NCI-H650"
  relative viability: 0.917
- Molecule: "COc1nc(C)cnc1NS(=O)(=O)c1cccnc1-c1ccc(-c2nnco2)cc1 [Zibotentan] + CC(=O)c1c(C)c2cnc(Nc3ccc(N4CCNCC4)cn3)nc2n(C2CCCC2)c1=O [Palbociclib] (partner 0.5 µM)"
  System Under Test: "NCI-H650"
  relative viability: 0.339
- Molecule: "COc1nc(C)cnc1NS(=O)(=O)c1cccnc1-c1ccc(-c2nnco2)cc1 [Zibotentan] + CS(=O)(=O)CCNCc1ccc(-c2ccc3ncnc(Nc4ccc(OCc5cccc(F)c5)c(Cl)c4)c3c2)o1 [Lapatinib] (partner 2 µM)"
  System Under Test: "NCI-H650"
  relative viability: 0.974

* * *

Catalogue of relative viability readings, one per entry.
- System: SK-LU-1
- Test Protocol: relative viability (nuclei count vs DMSO), 5 days (fraction); higher = more cells survive
- Conditions: first compound 0.1 µM
Measure: relative viability

- Compound: "CCN(CC)CCCCNc1ncc2cc(-c3cc(OC)cc(OC)c3)c(NC(=O)NC(C)(C)C)nc2n1 + CC1(C)CCC(c2ccc(Cl)cc2)=C(CN2CCN(c3ccc(C(=O)NS(=O)(=O)c4ccc(N[C@H](CCN5CCOCC5)CSc5ccccc5)c(S(=O)(=O)C(F)(F)F)c4)cc3)CC2)C1 [Navitoclax] (partner 0.5 µM)"
  Numeric Readout: 1.08
- Compound: "CCN(CC)CCCCNc1ncc2cc(-c3cc(OC)cc(OC)c3)c(NC(=O)NC(C)(C)C)nc2n1 + Cc1nc(Nc2ncc(C(=O)Nc3c(C)cccc3Cl)s2)cc(N2CCN(CCO)CC2)n1 [Dasatinib] (partner 0.075 µM)"
  Numeric Readout: 0.177
- Compound: "O=c1cc(N2CCOCC2)oc2c(-c3cccc4c3sc3ccccc34)cccc12 + Nc1ncn([C@H]2C[C@H](O)[C@@H](CO)O2)c(=O)n1 [Decitabine] (partner 2 µM)"
  Numeric Readout: 0.596
- Compound: "CCN(CC)CCCCNc1ncc2cc(-c3cc(OC)cc(OC)c3)c(NC(=O)NC(C)(C)C)nc2n1 + Nc1nc2[nH]cc(CCc3ccc(C(=O)N[C@@H](CCC(=O)O)C(=O)O)cc3)c2c(=O)[nH]1 [Pemetrexed] (partner 0.2 µM)"
  Numeric Readout: 1.1

* * *

- Test system: NCI-H650
- Test Protocol: relative viability (nuclei count vs DMSO), 5 days (fraction); higher = more cells survive
- Conditions: first compound 0.08 µM
Catalogue of relative viability readings, one per entry.

- Compound: "O=c1cc(-c2cccc3c2Sc2ccccc2S3)oc(N2CCOCC2)c1 + N=C(N)NC(=N)NCCc1ccccc1 [Phenformin] (partner 250 µM)"
  relative viability: 0.386
- Compound: "O=c1cc(-c2cccc3c2Sc2ccccc2S3)oc(N2CCOCC2)c1 + Cc1nc(Nc2ncc(C(=O)Nc3c(C)cccc3Cl)s2)cc(N2CCN(CCO)CC2)n1 [Dasatinib] (partner 0.075 µM)"
  relative viability: 0.4
- Compound: "O=c1cc(-c2cccc3c2Sc2ccccc2S3)oc(N2CCOCC2)c1 + Cc1nc(NC(=O)N2CCC[C@H]2C(N)=O)sc1-c1ccnc(C(C)(C)C(F)(F)F)c1 [Alpelisib] (partner 2 µM)"
  relative viability: 1.1

* * *

- System: NCI-H3122
- Test Protocol: relative viability (nuclei count vs DMSO), 5 days (fraction); higher = more cells survive
- Conditions: first compound 0.1 µM

- Compound: "CCN(CC)CCCCNc1ncc2cc(-c3cc(OC)cc(OC)c3)c(NC(=O)NC(C)(C)C)nc2n1 + COc1cccc2cc(-c3nc([C@H]4CC[C@H](C(=O)O)CC4)n4ncnc(N)c34)[nH]c12 [OSI-027] (partner 0.5 µM)"
  relative viability: 1.15
- Compound: "CCN(CC)CCCCNc1ncc2cc(-c3cc(OC)cc(OC)c3)c(NC(=O)NC(C)(C)C)nc2n1 + CS(=O)(=O)CCNCc1ccc(-c2ccc3ncnc(Nc4ccc(OCc5cccc(F)c5)c(Cl)c4)c3c2)o1 [Lapatinib] (partner 2 µM)"
  relative viability: 1.16

* * *

- Tested on: NCI-H2087
- Test Protocol: relative viability (nuclei count vs DMSO), 5 days (fraction); higher = more cells survive
- Conditions: first compound 8 µM

- Molecule: "O=c1cc(-c2cccc3c2Sc2ccccc2S3)oc(N2CCOCC2)c1 + CC(=O)Nc1cccc(-n2c(=O)n(C3CC3)c(=O)c3c(Nc4ccc(I)cc4F)n(C)c(=O)c(C)c32)c1 [Trametinib] (partner 0.02 µM)"
  relative viability: 0.179
- Molecule: "O=c1cc(-c2cccc3c2Sc2ccccc2S3)oc(N2CCOCC2)c1 + CC1(C)CCC(c2ccc(Cl)cc2)=C(CN2CCN(c3ccc(C(=O)NS(=O)(=O)c4ccc(N[C@H](CCN5CCOCC5)CSc5ccccc5)c(S(=O)(=O)C(F)(F)F)c4)cc3)CC2)C1 [Navitoclax] (partner 0.5 µM)"
  relative viability: 1.21
- Molecule: "O=c1cc(-c2cccc3c2Sc2ccccc2S3)oc(N2CCOCC2)c1 + Nc1ncn([C@H]2C[C@H](O)[C@@H](CO)O2)c(=O)n1 [Decitabine] (partner 2 µM)"
  relative viability: 0.238
- Molecule: "O=c1cc(-c2cccc3c2Sc2ccccc2S3)oc(N2CCOCC2)c1 + CS(=O)(=O)N1CCN(Cc2cc3nc(-c4cccc5[nH]ncc45)nc(N4CCOCC4)c3s2)CC1 [Pictilisib] (partner 1 µM)"
  relative viability: 0.973
- Molecule: "O=c1cc(-c2cccc3c2Sc2ccccc2S3)oc(N2CCOCC2)c1 + CC(C)C[C@H](NC(=O)[C@H](Cc1ccccc1)NC(=O)c1cnccn1)B(O)O [Bortezomib] (partner 0.002 µM)"
  relative viability: 0.888

* * *

- Tested on: IA-LM
- Test Protocol: relative viability (nuclei count vs DMSO), 5 days (fraction); higher = more cells survive
- Conditions: first compound 0.2 µM
So basically, if relative viability comes in under 0.7 it's 1, and if it's 0.7 or more it's -1.

- Molecule: "COCC1(CO)C(=O)C2CCN1CC2 (stereo not given) [PRIMA-1MET] + CC1(C)CCC(c2ccc(Cl)cc2)=C(CN2CCN(c3ccc(C(=O)NS(=O)(=O)c4ccc(N[C@H](CCN5CCOCC5)CSc5ccccc5)c(S(=O)(=O)C(F)(F)F)c4)cc3)CC2)C1 [Navitoclax] (partner 0.5 µM)"
  System Under Test: "IA-LM"
  Group Label: 1
- Molecule: "COCC1(CO)C(=O)C2CCN1CC2 (stereo not given) [PRIMA-1MET] + O=C(CCCCCCC(=O)Nc1ccccc1)NO [Vorinostat] (partner 1 µM)"
  System Under Test: "IA-LM"
  Group Label: -1
- Molecule: "COCC1(CO)C(=O)C2CCN1CC2 (stereo not given) [PRIMA-1MET] + CS(=O)(=O)N1CCN(Cc2cc3nc(-c4cccc5[nH]ncc45)nc(N4CCOCC4)c3s2)CC1 [Pictilisib] (partner 1 µM)"
  System Under Test: "IA-LM"
  Group Label: 1
- Molecule: "COCC1(CO)C(=O)C2CCN1CC2 (stereo not given) [PRIMA-1MET] + CC(C)C[C@H](NC(=O)[C@H](Cc1ccccc1)NC(=O)c1cnccn1)B(O)O [Bortezomib] (partner 0.002 µM)"
  System Under Test: "IA-LM"
  Group Label: -1
